Entries and their switch fluorescence ratio
# Tested on: ATP;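 further: ATP exposure 15 min at 22 °C before imaging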
# measurement_description: switch fluorescence ratio, 500 uM ATP over buffer (Cy3 cluster intensity, sum of 5 cycles each) (fold (ratio)); higher = stronger signal-on switching upon ATP binding; sequences stand for … in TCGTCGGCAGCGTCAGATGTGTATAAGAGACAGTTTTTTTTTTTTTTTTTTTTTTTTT…TC
# condition_parameters: aptamer strand: ATP DNA aptamer (quencher-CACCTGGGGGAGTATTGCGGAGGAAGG + anchor), 100 nM annealed; ATP concentration: 500 uM
Form rule: numeric answer, no unit written next to it.

// known answers, use as guide
TTTGGGCTGC :: 1.28
GAGCTATGGG :: 0.983

### Prompt Endpoint output: switch fluorescence ratio of GTTTTTGGTC . Value?
### Response 0.974

###

# Tested on: ATP;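 further: ATP exposure 15 min at 22 °C before imaging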
# measurement_description: switch fluorescence ratio, 500 uM ATP over buffer (Cy3 cluster intensity, sum of 5 cycles each) (fold (ratio)); higher = stronger signal-on switching upon ATP binding; sequences stand for … in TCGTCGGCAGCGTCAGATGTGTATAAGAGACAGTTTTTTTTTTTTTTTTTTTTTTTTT…TC
# condition_parameters: aptamer strand: ATP DNA aptamer (quencher-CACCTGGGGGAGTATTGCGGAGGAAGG + anchor), 100 nM annealed; ATP concentration: 500 uM
Entries and their switch fluorescence ratio
Form rule: numeric answer, no unit written next to it.

// known answers, use as guide
CTACTACTGA :: 1.08
GAATGTTTGG :: 0.991
ATCTGGTGCA :: 1.05

### Prompt Endpoint output: switch fluorescence ratio of CGGAGGGAGT . Value?
### Response 1.78

###

# Test system: ATP;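 further: ATP exposure 15 min at 22 °C before imaging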
# measurement_description: switch fluorescence ratio, 500 uM ATP over buffer (Cy3 cluster intensity, sum of 5 cycles each) (fold (ratio)); higher = stronger signal-on switching upon ATP binding; sequences stand for … in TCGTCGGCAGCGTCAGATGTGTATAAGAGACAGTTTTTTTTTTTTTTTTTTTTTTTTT…TC
# condition_parameters: aptamer strand: ATP DNA aptamer (quencher-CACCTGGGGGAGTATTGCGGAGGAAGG + anchor), 100 nM annealed; ATP concentration: 500 uM
readout_type: switch fluorescence ratio
Form rule: numeric answer, no unit written next to it.

GGTGCCGTGC :: 0.995
AAGGATGTTG :: 1
GGGGGAGGAA :: 0.978
GTTAATAGAA :: 0.984

### Prompt Endpoint output: switch fluorescence ratio of CGCGAAAGCC . Value?
### Response 1

### Prompt Endpoint output: switch fluorescence ratio of GGTCTAGGCA . Value?
### Response 0.987

###

# Tested on: ATP;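 further: ATP exposure 15 min at 22 °C before imaging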
# measurement_description: switch fluorescence ratio, 500 uM ATP over buffer (Cy3 cluster intensity, sum of 5 cycles each) (fold (ratio)); higher = stronger signal-on switching upon ATP binding; sequences stand for … in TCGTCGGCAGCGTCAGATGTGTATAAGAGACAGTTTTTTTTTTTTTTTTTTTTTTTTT…TC
# condition_parameters: aptamer strand: ATP DNA aptamer (quencher-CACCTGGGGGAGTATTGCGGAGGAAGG + anchor), 100 nM annealed; ATP concentration: 500 uM
readout_type: switch fluorescence ratio
Form rule: numeric answer, no unit written next to it.

// known answers, use as guide
AGGCAAGGGG :: 1.04
GTTGACAAAT :: 1.04
TTCCCGGGGA :: 1.24
GCGTTGTGGC :: 1.01
GGCCAACCCG :: 1.02
TAGATAGAAC :: 0.976

### Prompt Endpoint output: switch fluorescence ratio of GGGCGGGCAG . Value?
### Response 0.997

### Prompt Endpoint output: switch fluorescence ratio of TGAAAGTTTT . Value?
### Response 0.971

### Prompt Endpoint output: switch fluorescence ratio of GTTTGGGATG . Value?
### Response 0.974
